Assay: Stability of apelin analogs in rat plasma
Assay type: in vitro ADME
Details: rat, plasma, pH 7.4
Recorded Metric: half-life at 0.1 mg/ml (h)
Write down the numeric answer in h and omit the unit.

>  <Compound>
CSCC[C@@H]1NC(=O)[C@@H]2CCCN2C(=O)CNC(=O)C(NC(=O)[C@H](Cc2c[nH]cn2)NC(=O)[C@H](C)NC(=O)[C@H](CC(C)C)NC(=O)[C@H](CCCNC(=N)N)NC(=O)[C@@H]2CCCN2C(=O)[C@H](CCCNC(=N)N)NC(=O)[C@@H]2CCC(=O)N2)CSCC(C(=O)N[C@@H](Cc2ccccc2)C(=O)O)NC1=O (stereo partly drawn)

>  <half-life at 0.1 mg/ml [h]>
8

$$$$

half-life at 0.1 mg/ml reported for this compound CSCC[C@H](NC(=O)[C@@H]1CSCC(NC(=O)[C@H](CC(C)C)NC(=O)[C@H](CCCNC(=N)N)NC(=O)[C@@H]2CCCN2C(=O)[C@H](CCCNC(=N)N)NC(=O)[C@@H]2CCC(=O)N2)C(=O)N[C@@H](Cc2c[nH]cn2)C(=O)N[C@@H](CCCCN)C(=O)NCC(=O)N2CCC[C@H]2C(=O)N1)C(=O)N1CCC[C@H]1C(=O)N[C@@H](Cc1ccccc1)C(=O)O (stereo partly drawn) [pEApeM12S, pERPRLLanHKGPLanMPF] : 3

Recorded values, source patent US20170107257A1.
